# Applied Conditions: siRNA; further: test system not given here
HELM strings list units from the 5' end as sugar, base in round brackets, then linkage (d deoxyribose, r ribose, m 2'-O-methyl, p phosphodiester). Strings are as the collection lists them, not checked against the first reports. ss, as = sense and antisense strand; [hna] = hexitol nucleic acid
# target mRNA knockdown per entry
Unit % implied. Number only.

// solved cases for target mRNA knockdown follow
Given the entry RNA1{r(G)p.r(C)p.r(A)p.r(G)p.r(C)p.r(A)p.r(C)p.r(G)p.r(A)p.r(C)p.r(U)p.r(U)p.r(C)p.r(U)p.r(U)p.r(C)p.r(A)p.r(A)p.r(G)p.r(T)p.r(T)}|RNA2{m(C)p.m(U)p.m(U)p.m(G)p.m(A)p.m(A)p.m(G)p.m(A)p.m(A)p.m(G)p.m(U)p.m(C)p.m(G)p.m(U)p.m(G)p.m(C)p.m(U)p.m(G)p.m(C)p.r(T)p.r(T)}$$$RNA1{StrandType:ss}|RNA2{StrandType:as}$ , report its measured target mRNA knockdown.
16

Given the entry RNA1{m(U)p.r(C)p.m(C)p.r(U)p.m(C)p.r(G)p.m(U)p.r(C)p.m(G)p.r(U)p.m(C)p.r(U)p.m(G)p.r(U)p.m(U)p.r(C)p.m(U)p.r(A)p.m(A)p.r(T)p.r(T)}|RNA2{r(U)p.r(U)p.m(A)p.r(G)p.m(A)p.r(A)p.r(C)p.r(A)p.r(G)p.r(A)p.r(C)p.r(G)p.r(A)p.r(C)p.r(G)p.r(A)p.m(G)p.r(G)p.m(A)p.r(T)p.r(T)}$$$RNA1{StrandType:ss}|RNA2{StrandType:as}$ , report its measured target mRNA knockdown.
63

Given the entry RNA1{r(U)p.r(C)p.m(U)p.r(A)p.r(C)p.r(A)p.r(C)p.r(C)p.r(G)p.r(C)p.r(G)p.r(C)p.r(C)p.r(C)p.r(C)p.r(C)p.r(C)p.r(U)p.r(C)p.r(T)p.r(T)}|RNA2{r(G)p.r(A)p.r(G)p.r(G)p.r(G)p.r(G)p.r(G)p.r(G)p.r(C)p.r(G)p.r(C)p.r(G)p.r(G)p.r(U)p.r(G)p.m(U)p.r(A)p.r(G)p.r(A)p.r(T)p.r(T)}$$$RNA1{StrandType:ss}|RNA2{StrandType:as}$ , report its measured target mRNA knockdown.
79

Given the entry RNA1{r(A)p.r(G)p.r(A)p.r(A)p.r(A)p.r(C)p.r(G)p.m(C)p.r(A)p.r(G)p.m(U)p.m(A)p.r(A)p.r(U)p.r(C)p.r(C)p.r(G)p.r(G)p.r(A)p.r(T)p.r(T)}|RNA2{r(U)p.r(C)p.r(C)p.r(G)p.r(G)p.r(A)p.r(U)p.m(U)p.r(A)p.r(C)p.m(U)p.r(G)p.r(C)p.r(G)p.r(U)p.r(U)p.r(U)p.r(C)p.r(U)p.r(T)p.r(T)}$$$RNA1{StrandType:ss}|RNA2{StrandType:as}$ , report its measured target mRNA knockdown.
78

Below: the item to evaluate.
Given the entry RNA1{r(G)p.r(A)p.r(C)p.r(G)p.[hna](U)p.r(A)p.r(A)p.[hna](A)p.r(C)p.r(G)p.[hna](G)p.r(C)p.r(C)p.[hna](A)p.r(C)p.r(A)p.r(A)p.r(G)p.r(U)p.r(U)p.d(T)}|RNA2{r(A)p.r(C)p.r(U)p.r(U)p.r(G)p.r(U)p.r(G)p.r(G)p.r(C)p.r(C)p.r(G)p.r(U)p.r(U)p.r(U)p.r(A)p.r(C)p.r(G)p.r(U)p.r(C)p.r(G)p.r(C)}$$$RNA1{StrandType:ss}|RNA2{StrandType:as}$ , report its measured target mRNA knockdown.
81.2

====

# Applied Conditions: siRNA
HELM strings list units from the 5' end as sugar, base in round brackets, then linkage (d deoxyribose, r ribose, m 2'-O-methyl, p phosphodiester). Strings are as the collection lists them, not checked against the first reports. ss, as = sense and antisense strand; [una] = unlocked nucleic acid; [fl2r] = 2'-fluoro
# target mRNA knockdown per entry
Unit % implied. Number only.

Given the entry RNA1{r(G)p.r(U)p.r(A)p.r(U)p.r(G)p.r(A)p.r(C)p.r(C)p.r(G)p.r(A)p.r(C)p.r(U)p.r(A)p.r(C)p.r(G)p.r(C)p.r(G)p.r(U)p.r(A)p.r(T)p.r(T)}|RNA2{r(U)p.r(U)p.r(C)p.r(A)p.r(G)p.[una](U)p.r(G)p.r(U)p.r(G)p.r(A)p.r(U)p.r(G)p.r(A)p.r(C)p.r(A)p.r(C)p.r(U)p.r(U)p.r(G)p.r(T)p.r(T)}$$$RNA1{StrandType:ss}|RNA2{StrandType:as}$ , report its measured target mRNA knockdown.
78

---
Given the entry RNA1{[fl2r](A)p.r(G)p.r(A)p.[fl2r](G)p.r(A)p.[fl2r](A)p.r(G)p.[fl2r](G)p.[fl2r](G)p.r(C)p.r(G)p.[fl2r](U)p.r(C)p.r(U)p.r(C)p.[fl2r](U)p.r(A)p.[fl2r](C)p.r(A)p.r(T)p.r(T)}|RNA2{r(U)p.r(G)p.r(U)p.r(A)p.r(G)p.r(A)p.r(G)p.r(A)p.r(C)p.r(G)p.r(C)p.r(C)p.r(C)p.r(U)p.r(U)p.r(C)p.r(U)p.r(C)p.r(U)p.r(T)p.r(T)}$$$RNA1{StrandType:ss}|RNA2{StrandType:as}$ , report its measured target mRNA knockdown.
75

====

# Applied Conditions: siRNA
HELM strings list units from the 5' end as sugar, base in round brackets, then linkage (d deoxyribose, r ribose, m 2'-O-methyl, p phosphodiester). Strings are as the collection lists them, not checked against the first reports. ss, as = sense and antisense strand; [fl2r] = 2'-fluoro
Metric Name: target mRNA knockdown (%)
Unit % implied. Number only.

Given the entry RNA1{m(A)p.r(G)p.m(C)p.r(G)p.m(G)p.r(G)p.m(G)p.r(U)p.m(A)p.r(U)p.m(G)p.r(A)p.m(A)p.r(G)p.m(A)p.r(G)p.m(C)p.r(U)p.m(U)p.r(T)p.r(T)}|RNA2{r(A)p.r(A)p.r(G)p.r(C)p.r(U)p.r(C)p.r(U)p.r(U)p.r(C)p.r(A)p.r(U)p.r(A)p.r(C)p.r(C)p.r(C)p.r(C)p.r(G)p.r(C)p.r(U)p.r(T)p.r(T)}$$$RNA1{StrandType:ss}|RNA2{StrandType:as}$ , report its measured target mRNA knockdown.
75

Below: the item to evaluate.
Given the entry RNA1{r(G)p.r(A)p.r(A)p.r(G)p.r(A)p.r(U)p.r(A)p.r(G)p.r(G)p.r(A)p.r(A)p.r(G)p.r(G)p.r(G)p.r(G)p.r(C)p.r(U)p.r(U)p.r(C)p.r(T)p.r(T)}|RNA2{r(G)p.r(A)p.r(A)p.r(G)p.[fl2r](C)p.[fl2r](C)p.[fl2r](C)p.[fl2r](C)p.[fl2r](U)p.[fl2r](U)p.[fl2r](C)p.[fl2r](C)p.[fl2r](U)p.r(A)p.[fl2r](U)p.[fl2r](C)p.[fl2r](U)p.[fl2r](U)p.[fl2r](C)p.r(T)p.r(T)}$$$RNA1{StrandType:ss}|RNA2{StrandType:as}$ , report its measured target mRNA knockdown.
5

====

# Applied Conditions: siRNA
HELM strings list units from the 5' end as sugar, base in round brackets, then linkage (d deoxyribose, r ribose, m 2'-O-methyl, p phosphodiester). Strings are as the collection lists them, not checked against the first reports. ss, as = sense and antisense strand; [fl2r] = 2'-fluoro
# target mRNA knockdown per entry
Could you write the number and then its unit?

Given the entry RNA1{[fl2r](A)p.r(C)p.[fl2r](A)p.r(U)p.[fl2r](A)p.r(G)p.[fl2r](A)p.r(G)p.[fl2r](G)p.r(A)p.[fl2r](A)p.r(G)p.r(A)p.r(C)p.r(G)p.r(C)p.r(G)p.r(G)p.r(A)p.r(T)p.r(T)}|RNA2{[fl2r](U)p.r(C)p.[fl2r](C)p.r(G)p.[fl2r](C)p.r(G)p.[fl2r](U)p.r(C)p.[fl2r](U)p.r(U)p.[fl2r](C)p.r(C)p.[fl2r](U)p.r(C)p.[fl2r](U)p.r(A)p.[fl2r](U)p.r(G)p.r(U)p.r(T)p.r(T)}$$$RNA1{StrandType:ss}|RNA2{StrandType:as}$ , report its measured target mRNA knockdown.
57%

Below: the item to evaluate.
Given the entry RNA1{m(C)p.r(C)p.m(G)p.r(A)p.m(G)p.r(A)p.m(G)p.r(C)p.m(U)p.r(C)p.m(U)p.r(C)p.m(C)p.r(U)p.m(A)p.r(C)p.m(C)p.r(U)p.m(U)p.r(T)p.r(T)}|RNA2{r(A)p.r(A)p.r(G)p.r(G)p.r(U)p.r(A)p.r(G)p.r(G)p.r(A)p.r(G)p.r(A)p.r(G)p.r(C)p.r(U)p.r(C)p.r(U)p.r(C)p.r(G)p.r(G)p.r(T)p.r(T)}$$$RNA1{StrandType:ss}|RNA2{StrandType:as}$ , report its measured target mRNA knockdown.
34%

Reference source for all entries: the OligoGym collection
